Molecular target: Phosphatidylinositol 4,5-bisphosphate 3-kinase catalytic subunit beta isoform (Homo sapiens)
Sequence (P42338 whole entry, canonical isoform): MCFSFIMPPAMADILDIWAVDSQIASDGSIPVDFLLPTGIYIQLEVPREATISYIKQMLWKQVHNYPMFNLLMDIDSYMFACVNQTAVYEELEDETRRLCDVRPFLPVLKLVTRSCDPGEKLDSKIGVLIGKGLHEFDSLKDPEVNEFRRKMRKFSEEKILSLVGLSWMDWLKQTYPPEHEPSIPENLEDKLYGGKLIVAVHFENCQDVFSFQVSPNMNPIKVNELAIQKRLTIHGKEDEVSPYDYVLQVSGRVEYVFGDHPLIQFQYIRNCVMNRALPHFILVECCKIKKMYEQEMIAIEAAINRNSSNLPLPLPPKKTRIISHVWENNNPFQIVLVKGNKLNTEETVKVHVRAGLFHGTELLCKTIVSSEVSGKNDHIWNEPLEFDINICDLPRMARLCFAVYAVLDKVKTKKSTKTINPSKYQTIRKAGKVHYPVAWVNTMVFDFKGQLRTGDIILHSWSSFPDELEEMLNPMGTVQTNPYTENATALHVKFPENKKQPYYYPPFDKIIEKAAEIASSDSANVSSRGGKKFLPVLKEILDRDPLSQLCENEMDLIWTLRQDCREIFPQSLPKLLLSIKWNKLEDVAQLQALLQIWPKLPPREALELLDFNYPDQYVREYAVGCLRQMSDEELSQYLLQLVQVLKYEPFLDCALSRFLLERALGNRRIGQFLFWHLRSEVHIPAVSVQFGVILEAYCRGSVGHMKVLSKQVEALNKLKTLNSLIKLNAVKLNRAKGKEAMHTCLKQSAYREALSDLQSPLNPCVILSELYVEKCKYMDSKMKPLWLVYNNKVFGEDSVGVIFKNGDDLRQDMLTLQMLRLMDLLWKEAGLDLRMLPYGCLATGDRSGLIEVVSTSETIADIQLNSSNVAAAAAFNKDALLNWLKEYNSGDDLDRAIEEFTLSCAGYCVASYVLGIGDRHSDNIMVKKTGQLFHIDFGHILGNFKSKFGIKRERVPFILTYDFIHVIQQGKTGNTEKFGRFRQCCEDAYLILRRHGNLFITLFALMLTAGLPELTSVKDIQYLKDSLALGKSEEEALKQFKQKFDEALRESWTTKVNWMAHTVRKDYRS
Assay: Inhibition of PI3Kbeta (unknown origin)
measure.name: pIC50
# pIC50 = -log10(concentration in molar units)

Problem: Name the recorded pIC50 for `Cc1nc(N)c(-c2nc(C3CCN(C)CC3)nn2C)nc1-c1cnc2ccccn12` .
Solution: 7.49

Problem: What value of pIC50 has been reported for the following compound? `CNC(=O)c1nc(-c2nc(-c3cnc4ccccn34)cnc2N)n(C)n1`
Solution: 5.89

Problem: Please look up its pIC50: `Cc1nc(N)c(-c2cnn(C3CCN(C)CC3)n2)nc1-c1cnc2ccccn12`
Solution: 7.12

----------
Experiment: Apparent permeability of the compound across apical side to basolateral side in human Caco2 cells
Format: ADME, cell-based
Details: Caco-2
measure.name: Papp A→B (×10⁻⁶ cm/s)
Numeric only. Scale: ×10⁻⁶ cm/s

Problem: Given `CNC(=O)c1nc(-c2nc(-c3cnn4ccccc34)c(C)nc2N)n(C)n1` , state its recorded Papp A→B.
Solution: 36

Problem: GET /values?readout=Papp A→B&item= `CNC(=O)c1nc(-c2nc(-c3cnc4ccccn34)c(C)nc2N)n(C)n1`
Solution: 6

----------
Target: Phosphatidylinositol 4,5-bisphosphate 3-kinase catalytic subunit delta isoform (Homo sapiens, UniProt O00329)
Sequence (O00329 whole entry, canonical isoform): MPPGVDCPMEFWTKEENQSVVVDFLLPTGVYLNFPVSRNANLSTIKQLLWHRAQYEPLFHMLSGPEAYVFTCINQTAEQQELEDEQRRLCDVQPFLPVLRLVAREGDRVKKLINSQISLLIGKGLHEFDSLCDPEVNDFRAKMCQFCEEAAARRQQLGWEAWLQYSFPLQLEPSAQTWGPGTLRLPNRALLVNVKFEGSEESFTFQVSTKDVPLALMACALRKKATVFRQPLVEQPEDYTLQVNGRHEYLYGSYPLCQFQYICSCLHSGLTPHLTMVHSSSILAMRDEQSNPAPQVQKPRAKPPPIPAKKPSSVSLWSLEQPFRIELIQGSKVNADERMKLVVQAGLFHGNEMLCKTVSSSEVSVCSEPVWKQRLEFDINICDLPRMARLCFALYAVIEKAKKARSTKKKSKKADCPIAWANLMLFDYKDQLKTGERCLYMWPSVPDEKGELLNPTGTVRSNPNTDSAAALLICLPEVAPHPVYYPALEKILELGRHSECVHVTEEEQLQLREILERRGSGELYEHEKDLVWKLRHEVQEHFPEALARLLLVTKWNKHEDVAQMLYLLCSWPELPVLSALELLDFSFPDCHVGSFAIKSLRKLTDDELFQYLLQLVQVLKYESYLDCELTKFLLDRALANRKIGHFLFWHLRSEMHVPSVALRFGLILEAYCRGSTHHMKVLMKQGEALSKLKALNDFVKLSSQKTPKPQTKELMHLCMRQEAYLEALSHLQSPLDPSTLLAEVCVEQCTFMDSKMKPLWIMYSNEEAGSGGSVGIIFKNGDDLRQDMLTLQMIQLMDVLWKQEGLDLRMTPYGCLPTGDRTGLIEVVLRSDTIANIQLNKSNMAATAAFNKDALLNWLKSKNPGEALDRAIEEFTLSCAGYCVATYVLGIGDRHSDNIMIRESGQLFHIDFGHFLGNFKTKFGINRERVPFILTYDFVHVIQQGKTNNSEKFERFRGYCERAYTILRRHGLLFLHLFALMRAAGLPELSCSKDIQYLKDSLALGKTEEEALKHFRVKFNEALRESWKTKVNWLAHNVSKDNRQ
Test: Inhibition of PI3Kdelta (unknown origin)
measure.name: IC50 (µM)
Number only, in µM; omit the unit.

Problem: For the compound shown here, `CNC(=O)c1nc(-c2nc(-c3cnc4ccccn34)c(C)nc2N)n(C)n1` , give the reported IC50.
Solution: 0.016

----------
Biological target: Serine/threonine-protein kinase mTOR (Homo sapiens)
measure.name: IC50 (µM)
Output spec: scalar in µM, unitless text.

Problem: Param item = `CNC(=O)c1nc(-c2nc(-c3cnc4ccccn34)c(C)nc2N)n(C)n1` ; retrieve measured IC50.
Solution: 29

----------
Assay: Aqueous solubility of the compound in phosphate buffer at pH 7.4
Type: physicochemical
measure.name: solubility (µM)
Report as a plain number; the unit µM is understood.

Problem: Look up solubility: `CNC(=O)c1nc(-c2nc(-c3cnn4ccccc34)c(C)nc2N)n(C)n1`
Solution: 7

----------
Hi there, I'd appreciate the recorded pIC50 for every entry that follows.
Biological target: Phosphatidylinositol 4,5-bisphosphate 3-kinase catalytic subunit beta isoform (Homo sapiens)
Experiment: Inhibition of PI3Kbeta in PTEN-deficient human MDA-MB-468 cells assessed as reduction in AKT phosphorylation at Ser473
When answering, recall that pIC50 equals minus log10 of the concentration in mol/L, and write that number alone.

Problem: Dear colleague, I am looking for the recorded pIC50 of the following compound: `Cc1nc(N)c(-c2nc(C3CCN(C)CC3)nn2C)nc1-c1cnc2ccccn12`
Solution: 6.70

Problem: Which pIC50 reading was recorded for the compound `Cc1nc(N)c(-c2cnn(C3CCN(C)CC3)n2)nc1-c1cnc2ccccn12` ?
Solution: 6.26

Problem: Which value of pIC50 has been reported for `Cc1nc(N)c(-c2nc(C(=O)NCCN(C)C)nn2C)nc1-c1cnn2ccccc12` in the records?
Solution: 5.82

Problem: What does the data say about its pIC50? Entry: `CNC(=O)c1nc(-c2nc(-c3cnc4ccccn34)cnc2N)n(C)n1`
Solution: 4.68

Problem: Any idea what pIC50 was measured for `CO[C@H]1CC[C@H](NC(=O)c2nc(-c3nc(-c4cnc5ccccn45)c(C)nc3N)n(C)n2)CC1` ?
Solution: 4.80

Problem: Reported pIC50, compound `CNC(=O)c1nc(-c2nc(-c3cnn4ccccc34)c(C)nc2N)n(C)n1` : ____
Solution: 5.82

Problem: Give its pIC50 value. Item: `CNC(=O)c1nc(-c2nc(-c3cnc4ccccn34)c(C)nc2N)n(C)n1`
Solution: 5.08
